// provenance: the supplement of paper PMC11208160

assay: recombinant barcode read abundance after kanamycin selection (control-corrected) (log10(CPM+1)); higher = more efficient recombination; sequences stand for … in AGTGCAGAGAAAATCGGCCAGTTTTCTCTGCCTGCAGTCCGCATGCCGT…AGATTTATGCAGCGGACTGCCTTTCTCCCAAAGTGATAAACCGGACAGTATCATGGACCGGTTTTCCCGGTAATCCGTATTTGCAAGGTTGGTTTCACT; site = the 11-nt target;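 note: IS621 recombinase and bridge RNA in Escherichia coli cells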
Think of 0.1 as a floor: if recombinant barcode read abundance (log10) stands on it or above, it is Satisfied; beneath it, Not satisfied.

Could you tell me if the measured recombinant barcode read abundance (log10) of GGATCCTCTTGGGTTCTAACCTGTTGCCG (site GTTTCCTCTCG) reaches 0.1 or more?
Not satisfied

// inclusive: recombinant barcode read abundance (log10) at least 0.1? input: ACGGGATCTTGGGTTCTAACCTGTTGCCT (site ACGGGATCTAG)
Satisfied

Entry CAAACTCCTTGGGTTCTAACCTGTTGCGT (site CAAACTCCTAG) : is its recombinant barcode read abundance (log10) no less than 0.1?
Not satisfied

Tell me whether recombinant barcode read abundance (log10) is at least 0.1 here: AGTATATCTTGGGTTCTAACCTGTTGCCT (site AGTATATCTAG)
Satisfied

Hi, just wondering whether CCAGGAGCTTGGGTTCTAACCTGTTGCAG (site CCAGGAGCTCT) shows recombinant barcode read abundance (log10) of 0.1 or higher.
Satisfied

Assess whether reported recombinant barcode read abundance (log10) for GTCATACCTTGGGTTCTAACCTGTTGCCT (site GTCGTACCTAG) sits at 0.1 or higher.
Satisfied

Entry ACTCGACCTTGGGTTCTAACCTGTTGCCT (site ACTCGACCTAG) : is its recombinant barcode read abundance (log10) no less than 0.1?
Satisfied

Is recombinant barcode read abundance (log10) at least 0.1? Consider ACGTCCACTTGGGTTCTAACCTGTTGCCA (site ACGTCCACTTG)
Satisfied

Textbook exercise: given the entry TCGTAGACTTGGGTTCTAACCTGTTGCTA (site GGTCGCCCTAC) , state whether its recombinant barcode read abundance (log10) is greater than or equal to 0.1.
Satisfied

Can GAGCGGCCTTGGGTTCTAACCTGTTGCAG (site ATTTAAGCTAG) be said to have recombinant barcode read abundance (log10) at or above 0.1?
Satisfied

Item GGGACGACTTGGGTTCTAACCTGTTGCTA (site GGGACGACTTA) with recombinant barcode read abundance (log10) of 0.1 or above?
Satisfied

API: above_or_equal(metric=recombinant barcode read abundance (log10), cutoff=0.1) for item AATTCGACTTGGGTTCTAACCTGTTGCCT (site ATTTCGACTAG)
Not satisfied

Say whether CAGCCCTCTTGGGTTCTAACCTGTTGCTA (site CAGCCCTCTTA) shows recombinant barcode read abundance (log10) of 0.1 or more.
Satisfied

Identify whether the reported recombinant barcode read abundance (log10) of the following sequence is 0.1 or greater: CAGTACTCTTGGGTTCTAACCTGTTGCCT (site CAGTACTCTAG)
Satisfied

Hello, I need to know if CGTGGGCCTTGGGTTCTAACCTGTTGCCT (site CGTGGGCCTAG) has measured recombinant barcode read abundance (log10) not below 0.1. Thanks!
Not satisfied

Dear colleague, could you confirm whether GCCAGACCTTGGGTTCTAACCTGTTGCCT (site GCCAAACCTAG) has recombinant barcode read abundance (log10) at or above 0.1?
Not satisfied

Could you please find out whether CGATGTGCTTGGGTTCTAACCTGTTGCCT (site CGATGTCCTAG) has recombinant barcode read abundance (log10) that meets 0.1 or exceeds it?
Satisfied

Reported recombinant barcode read abundance (log10) reaches at least 0.1 for AGAAGCCCTTGGGTTCTAACCTGTTGCCT (site ATAAGCCCTAG) ?
Not satisfied

Say whether GGTCCATCTTGGGTTCTAACCTGTTGCCT (site GATCCATCTAG) shows recombinant barcode read abundance (log10) of 0.1 or more.
Not satisfied

Tell me whether recombinant barcode read abundance (log10) is at least 0.1 here: GAGATGACTTGGGTTCTAACCTGTTGCGG (site GAGATGACTCC)
Satisfied

Given TAGCCTACTTGGGTTCTAACCTGTTGCGC (site TAGCCTACTCC) , state whether its recombinant barcode read abundance (log10) is at least 0.1.
Not satisfied

Please tell me: is the sequence CATCCATCTTGGGTTCTAACCTGTTGCAT (site TCGAGGCCTTA) at or over 0.1 in terms of recombinant barcode read abundance (log10)?
Satisfied

Please indicate if the recorded recombinant barcode read abundance (log10) for AACTTCGCTTGGGTTCTAACCTGTTGCCT (site AACTTCTCTAG) meets or exceeds 0.1.
Satisfied

Confirm if recombinant barcode read abundance (log10) reported for the sequence TAGCCCACTTGGGTTCTAACCTGTTGCGG (site TAGCCCACTCC) is 0.1 or above.
Satisfied

API: above_or_equal(metric=recombinant barcode read abundance (log10), cutoff=0.1) for item CCTCGAGCTTGGGTTCTAACCTGTTGCGG (site TCTAGAGCTCC)
Satisfied

Entry TCTAAGTCTTGGGTTCTAACCTGTTGCCC (site TCTAAGTCTCG) : is its recombinant barcode read abundance (log10) no less than 0.1?
Not satisfied

# check: recombinant barcode read abundance (log10) of TCCTTCACTTGGGTTCTAACCTGTTGCCT (site TCCTTCACTAG) is greater than or equal to 0.1
Satisfied

Quick check: does AACTTCGCTTGGGTTCTAACCTGTTGCCT (site AACTTCACTAG) have recombinant barcode read abundance (log10) greater than or equal to 0.1?
Satisfied

Answer whether recombinant barcode read abundance (log10) of TAGAAGACTTGGGTTCTAACCTGTTGCTT (site TAGAAGACTAA) is greater than or equal to 0.1.
Satisfied

Answer whether recombinant barcode read abundance (log10) of GCGGGATCTTGGGTTCTAACCTGTTGCCT (site TCGGGATCTAG) is greater than or equal to 0.1.
Satisfied

Check this sequence for recombinant barcode read abundance (log10) at or above 0.1: GTAAGCACTTGGGTTCTAACCTGTTGCTT (site GTAAGCACTAA)
Satisfied

Test whether the sequence GACTTGGCTTGGGTTCTAACCTGTTGCCT (site GACTTGACTAG) records recombinant barcode read abundance (log10) of 0.1 or higher.
Not satisfied

# check: recombinant barcode read abundance (log10) of AGCAGAGCTTGGGTTCTAACCTGTTGCCG (site AGCAGAGCTCG) is greater than or equal to 0.1
Satisfied

Reported recombinant barcode read abundance (log10) reaches at least 0.1 for GAAAGTGCTTGGGTTCTAACCTGTTGCCT (site GAAAGTGCTAG) ?
Satisfied

Confirm if recombinant barcode read abundance (log10) reported for the sequence CACTTGCCTTGGGTTCTAACCTGTTGCCT (site CACTTGCCTAG) is 0.1 or above.
Satisfied

Entry CTTCGCACTTGGGTTCTAACCTGTTGCCT (site CTTCGCACTAG) : is its recombinant barcode read abundance (log10) no less than 0.1?
Not satisfied

Please indicate if the recorded recombinant barcode read abundance (log10) for GGGGACCCTTGGGTTCTAACCTGTTGCGC (site GGGGACCCTAC) meets or exceeds 0.1.
Satisfied

Hello, I need to know if CAACGACCTTGGGTTCTAACCTGTTGCCT (site CAACGACCTAG) has measured recombinant barcode read abundance (log10) not below 0.1. Thanks!
Satisfied

Quick check, recombinant barcode read abundance (log10) >= 0.1? TGCTCTACTTGGGTTCTAACCTGTTGCTT (site TGTTCTACTAA)
Not satisfied

Would you say ATCTTAACTTGGGTTCTAACCTGTTGCCT (site ATCTTAACTAG) shows recombinant barcode read abundance (log10) at minimum 0.1?
Satisfied

Does the sequence GACTGTTCTTGGGTTCTAACCTGTTGCCT (site GTCTGTTCTAG) have recorded recombinant barcode read abundance (log10) that is 0.1 or more?
Not satisfied

// inclusive: recombinant barcode read abundance (log10) at least 0.1? input: TTACGTGCTTGGGTTCTAACCTGTTGCGG (site TTACGGGCTCC)
Satisfied
